- study_target: Solute carrier family 15 member 1 (Rattus norvegicus)
- Sequence (P51574 whole entry): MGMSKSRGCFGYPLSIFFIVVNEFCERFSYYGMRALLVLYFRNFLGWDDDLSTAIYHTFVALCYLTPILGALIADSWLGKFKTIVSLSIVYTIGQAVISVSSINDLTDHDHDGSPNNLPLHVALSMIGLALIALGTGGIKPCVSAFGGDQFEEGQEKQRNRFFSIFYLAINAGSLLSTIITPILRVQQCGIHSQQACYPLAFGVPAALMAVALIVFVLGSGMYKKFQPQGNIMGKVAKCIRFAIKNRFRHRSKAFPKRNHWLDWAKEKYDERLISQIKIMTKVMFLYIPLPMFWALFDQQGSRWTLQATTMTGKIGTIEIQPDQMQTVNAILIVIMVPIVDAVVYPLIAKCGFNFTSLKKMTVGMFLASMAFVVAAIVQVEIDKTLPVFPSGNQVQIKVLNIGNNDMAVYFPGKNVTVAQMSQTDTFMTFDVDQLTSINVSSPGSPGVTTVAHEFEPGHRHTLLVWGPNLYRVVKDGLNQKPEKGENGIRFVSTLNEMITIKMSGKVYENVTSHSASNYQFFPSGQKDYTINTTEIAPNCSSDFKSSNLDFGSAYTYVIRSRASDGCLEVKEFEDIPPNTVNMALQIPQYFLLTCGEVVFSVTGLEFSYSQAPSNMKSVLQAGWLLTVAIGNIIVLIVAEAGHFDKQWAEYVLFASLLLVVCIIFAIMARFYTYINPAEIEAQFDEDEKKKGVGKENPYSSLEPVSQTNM
- experiment_description: TP_TRANSPORTER: inhibition of Gly-Sar uptake in PEPT1-expressing LLC-PK1 cells
endpoint_name: Ki (mM)
The reply should contain only the number, in mM.

Input line: Suppose we examine the compound "COC(=O)[C@@H](N)C(C)C" ; what Ki value has been reported?
Output line: 3.6

---

Recorded pKi for the following molecules
- study_target: Solute carrier family 15 member 2 (Rattus norvegicus)
- Sequence (Q63424 whole entry): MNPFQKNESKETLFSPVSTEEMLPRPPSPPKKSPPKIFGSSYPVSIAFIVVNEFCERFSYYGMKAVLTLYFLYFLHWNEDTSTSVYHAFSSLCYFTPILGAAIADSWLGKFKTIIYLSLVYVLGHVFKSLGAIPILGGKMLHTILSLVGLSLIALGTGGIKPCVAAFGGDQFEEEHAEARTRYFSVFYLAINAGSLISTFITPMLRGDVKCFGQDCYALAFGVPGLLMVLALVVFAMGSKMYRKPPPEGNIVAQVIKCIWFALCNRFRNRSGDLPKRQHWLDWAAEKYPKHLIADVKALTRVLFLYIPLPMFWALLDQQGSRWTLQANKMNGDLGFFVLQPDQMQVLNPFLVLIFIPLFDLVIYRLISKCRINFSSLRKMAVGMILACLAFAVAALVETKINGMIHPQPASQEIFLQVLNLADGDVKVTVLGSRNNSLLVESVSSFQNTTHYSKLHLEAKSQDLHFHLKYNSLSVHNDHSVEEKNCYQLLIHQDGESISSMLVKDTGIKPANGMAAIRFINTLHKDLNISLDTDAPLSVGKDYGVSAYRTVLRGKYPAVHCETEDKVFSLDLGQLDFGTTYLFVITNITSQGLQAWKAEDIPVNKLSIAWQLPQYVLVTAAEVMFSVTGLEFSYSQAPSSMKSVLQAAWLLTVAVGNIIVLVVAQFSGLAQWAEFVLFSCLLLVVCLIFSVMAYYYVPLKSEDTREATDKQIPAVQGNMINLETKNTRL
- experiment_description: TP_TRANSPORTER: inhibition of Gly-Sar uptake in PEPT2-expressing LLC-PK1 cells
- Type: functional, cell-based
The value called pKi is obtained by taking minus log10 of the concentration in mol/L.

COC(=O)[C@@H](N)C(C)C	3.08

# ---- query molecule ----
Input line: Find the recorded pKi belonging to CC(C)[C@H](N)C(=O)OCCOCn1cnc2c(=O)[nH]c(N)nc21 [VALACYCLOVIR] and report it.
Output line: 3.66

This collection of values is drawn from ChEMBL document CHEMBL2074135.
